- Tested on: HT-29 (colon adenocarcinoma)
- EXPERIMENTAL DETAILS: MTT cell viability assay, HT-29
- Format: cell-based
- MEASUREMENT PARAMETERS: Homo sapiens, HT-29, 48 h, 2 days incubation, average ±SD of three experiments
OUTCOME MEASURE: IC50

Worked examples, 5 compounds total:
>>> print(df.to_string())
                                   compound  outcome_measure  value_observed
0  Nc1ccc(-c2cn(Cc3cccc(Br)c3)nn2)cc1 [Compound 25]             IC50          8.5 µM
1  COc1ccccc1Cn1cc(-c2ccc(N)cc2)nn1 [Compound 18]             IC50        > 100 µM
2  Nc1ccc(-c2cn(Cc3ccc(Br)cc3)nn2)cc1 [Compound 26]             IC50           14 µM
3  Nc1ccc(-c2cn(Cc3cccc(Cl)c3)nn2)cc1 [Compound 22]             IC50        > 100 µM
4  Cc1cccc(Cn2cc(-c3ccc(N)cc3)nn2)c1 [Compound 16]             IC50            9 µM

Provide each entry's IC50 from the list below.
1. Nc1ccc(-c2cn(Cc3ccccc3)nn2)cc1 [Compound 14]
2. Nc1ccc(-c2cn(Cc3ccccc3Cl)nn2)cc1 [Compound 21]
3. CNC(=O)c1cc(Oc2ccc(NC(=O)Nc3ccc(Cl)c(C(F)(F)F)c3)cc2)ccn1 [Sorafenib, sorafenib, reference compound]

2 µM
> 100 µM
17 µM

Required: IC50, one value per compound below.
1. Nc1ccc(-c2cn(Cc3ccccc3Br)nn2)cc1 [Compound 24]
2. Cc1ccccc1Cn1cc(-c2ccc(N)cc2)nn1 [Compound 15]

1. 3.7 µM
2. 7 µM

* * *

- TARGET DESC: membrane PD-L1 (mPD-L1) (Homo sapiens)
- Construct: endogenous in cells; host or cells: HT-29, A-549, MCF-7
- Sequence (Q9NZQ7 19-290): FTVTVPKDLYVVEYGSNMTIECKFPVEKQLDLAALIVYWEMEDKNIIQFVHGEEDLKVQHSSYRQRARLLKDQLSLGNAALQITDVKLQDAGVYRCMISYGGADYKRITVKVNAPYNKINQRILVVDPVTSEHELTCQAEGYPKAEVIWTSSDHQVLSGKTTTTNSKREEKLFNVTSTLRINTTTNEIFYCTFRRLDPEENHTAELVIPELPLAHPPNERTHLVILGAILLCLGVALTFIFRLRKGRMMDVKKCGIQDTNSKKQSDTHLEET
- EXPERIMENTAL DETAILS: Membrane PD-L1 relative quantification by flow cytometry
- Assay type: cell-based
- MEASUREMENT PARAMETERS: A-549; 24 h; 100 or 10 μM (Table 7); percentage referred to DMSO control
I'd be grateful if you could share measured mPD-L1 relative detection, A-549 for these entries.

Example compounds with recorded mPD-L1 relative detection, A-549:
>>> df
                        line_notation                             target_desc  value_observed
0   Cc1ccc(Cn2cc(-c3ccc(N)cc3)nn2)cc1  membrane PD-L1 (mPD-L1) (Homo sapiens)        88 ± 21%
1  Nc1ccc(-c2cn(Cc3ccc(Cl)cc3)nn2)cc1  membrane PD-L1 (mPD-L1) (Homo sapiens)           >100%
2     Cc1ccccc1Cn1cc(-c2ccc(N)cc2)nn1  membrane PD-L1 (mPD-L1) (Homo sapiens)         90 ± 6%
3  Nc1ccc(-c2cn(Cc3cccc(Br)c3)nn2)cc1  membrane PD-L1 (mPD-L1) (Homo sapiens)           >100%

For each listed entry, give its mPD-L1 relative detection, A-549.
1. Nc1ccc(-c2cn(Cc3ccc(Br)cc3)nn2)cc1
2. Cc1cccc(Cn2cc(-c3ccc(N)cc3)nn2)c1
3. COc1cccc(Cn2cc(-c3ccc(N)cc3)nn2)c1
4. Nc1ccc(-c2cn(Cc3cccc(Cl)c3)nn2)cc1
5. Nc1ccc(-c2cn(Cc3ccccc3Br)nn2)cc1
6. Nc1ccc(-c2cn(Cc3ccccc3)nn2)cc1

76 ± 4%
86 ± 17%
>100%
82 ± 18%
88 ± 12%
>100%

Origin of measurements: paper PMC9266368
